# Test summary: chemical genetic growth profiling, strain panel (AID 1159580);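 further: tested at 20 µM; growth read once vehicle control cultures reached saturation at 30 °C; 1 = growth at the plate median or of vehicle wells; lower values mean less growth of the strain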
# Measurement parameters: S. cerevisiae deletion strains, growth OD, locus YLR221C, strain rsa3, stronger effect = lower value
The whole screen tested about 5,500 compounds, of which about 2,000 (36%) were called active. Not shown: some 18% with an inconclusive outcome. This is one part of the list. *1 amine or outer side, *2 acyl side, *3 side chain or, on linkers, in order; H or OH if unused. Where a SMILES comes first, the peptide text is derived from it. Bridges are numbered along the chain shown (N, C = ends). [ ]: non-standard residue; d: D form. The star is where a group is joined. ξ: configuration not given here. ΔAla(E,3-NHCONH2) = NC(=O)N/C=C(/N)C(=O)O; X2 = NC1=NCCC(C(N[*:1])C(=O)[*:2])N1; ξβ3hOrn = NCCCC(N)CC(=O)*; Dap = NC[CH](N)C(=O)O
Assay readout: normalized growth
Answer with the value's number alone.

Example entries begin here.
Compound	normalized growth
CC1=CC2C(C(C)C)CCC(C)(O)C2CC1 (stereo unspecified)	0.986
NCCNCCNCCN	0.984
NCCCC(N)CC(=O)NCC1NC(=O)C(CO)NC(=O)C(N)CNC(=O)C(C2CCN=C(N)N2)NC(=O)/C(=C\NC(N)=O)NC1=O (stereo not drawn) (H-[Dap]S[Dap](ξβ3hOrn)[ΔAla(E,3-NHCONH2)][X2]; lactam 1-C; configuration not given here)	0.993
CCOc1ccc(NC(C)=O)cc1	0.999
C#C[C@]1(O)CCC2C3CCC4=Cc5oncc5C[C@]4(C)C3CC[C@@]21C (stereo partly specified)	0.957
O=C(OC[C@H]1O[C@H](OC(=O)c2cc(O)c(O)c(OC(=O)c3cc(O)c(O)c(O)c3)c2)[C@H](OC(=O)c2cc(O)c(O)c(OC(=O)c3cc(O)c(O)c(O)c3)c2)[C@@H](OC(=O)c2cc(O)c(O)c(OC(=O)c3cc(O)c(O)c(O)c3)c2)[C@@H]1OC(=O)c1cc(O)c(O)c(OC(=O)c2cc(O)c(O)c(O)c2)c1)c1cc(O)c(O)c(OC(=O)c2cc(O)c(O)c(O)c2)c1	0.785
CC(=O)OC[C@H]1O[C@@H](Oc2cc(OC(C)=O)c3c(=O)cc(-c4ccc(OC(C)=O)cc4)oc3c2)[C@H](OC(C)=O)[C@@H](OC(C)=O)[C@@H]1OC(C)=O	0.971
CC(=O)[O][Hg][c]1ccccc1	0.0629
O=C(CCc1ccc(O)cc1)c1c(O)cc(O)cc1O[C@@H]1O[C@H](CO)[C@@H](O)[C@H](O)[C@H]1O	1.02
c1ccc([C@H]2CN3CCSC3=N2)cc1	0.979

[Q] // normalized growth lookup, key: CC(=O)OCC(=O)[C@@]12OC3(CCCC3)O[C@@H]1CC1C3CCC4=CC(=O)C=C[C@]4(C)[C@@]3(F)[C@@H](O)C[C@@]12C (stereo partly specified)
[A] 1.01

[Q] Field entry: OC(c1cc(C(F)(F)F)nc2c(C(F)(F)F)cccc12)C1CCCCN1 (stereo unspecified)
[A] 1.02
